Reference for the values: patent EP3868759A1

Item-by-item account of IC50
System: EGFR vIII Ba/F3
RUN DESCRIPTION: CellTiter-Glo cell viability, EGFR vIII Ba/F3
Type: cell-based
PROTOCOL CONDITIONS: Mus musculus, BaF3, 72 h, read-out: EGFR vIII Ba/F3 CTG IC50 /
Protocol: The CellTiter-Glo Luminescent Cell Viability Assay (Promega) is a homogeneous method of determining the number of viable cells in culture. It is based on quantification of ATP, indicating the presence of metabolically active cells. […] Following incubation the luminescence is recorded on a Victor microplate reader (Perkin Elmer) using a 200 ms integration time. The data is then analyzed with Excel using the XLFIT Plugin (dose response Fit 205) for IC50-determination. […]

Example results:
In [3]: df
Out[3]:
                                   compound     study_system  endpoint_label         value
0  C=CC(=O)Nc1cc(-c2c(-c3cnn(CCO)c3)[nH]c3ncc(C(=O)OC(C)C)c(C)c23)ccc1C  EGFR vIII Ba/F3            IC50  50 to 100 nM
1  C=CC(=O)Nc1cc(-c2c(-c3cnn(CC(C)O)c3)[nH]c3ncc(C(=O)OC(C)C)c(C)c23)ccc1C (stereo not drawn)  EGFR vIII Ba/F3            IC50  50 to 100 nM
2  C=CC(=O)Nc1cc(-c2c(-c3cnn(C)c3)[nH]c3ncc(C(=O)OC(C)C)c(C)c23)ccc1C  EGFR vIII Ba/F3            IC50  50 to 100 nM

Query: Give the reported IC50 for this compound. "C=CC(=O)Nc1cc(-c2c(-c3cnn(CC)c3)[nH]c3ncc(C(=O)OC(C)C)c(C)c23)ccc1C"
Reply: 100 to 500 nM

Query: Give the reported IC50 for this compound. "C=CC(=O)Nc1cc(-c2c(-c3cnn(C)c3)[nH]c3ncc(-c4cnn(C5CC5)c4)cc23)ccc1C"
Reply: ≤ 50 nM

Query: Give the reported IC50 for this compound. "C=CC(=O)Nc1cc(-c2c(-c3cnn(C4COC4)c3)[nH]c3ncc(C(=O)OC(C)C)c(C)c23)ccc1C"
Reply: 100 to 500 nM
